Experiment: Ratio of IC50 in the cell -doxorubicin-resistant Jurkat (JL D) / JL C
Type: functional
# cutoff 0.9 applies to Ratio; >= gives Y, < gives N

Test Smiles | Label Class
CN(C)CCNC(=O)c1cccc2nc3ccc4[nH]ncc4c3nc12 | Y

Lookup: Given the entry CN(C)CCNC(=O)c1cccc2nc3ccc4ccncc4c3nc12 , answer whether its Ratio meets or surpasses 0.9.
Found: Y

Lookup: Now consider CN(C)CCNC(=O)c1cccc2nc3ccc4c(cnn4C)c3nc12 and answer again.
Found: N

Lookup: Now consider CN(C)CCNC(=O)c1cccc2nc3ccccc3nc12 and answer again.
Found: Y

Lookup: Now consider CN(C)CCNC(=O)c1cccc2nc3ccc4cnccc4c3nc12 and answer again.
Found: Y

Lookup: Now consider COc1nccc2c1ccc1nc3cccc(C(=O)NCCN(C)C)c3nc12 and answer again.
Found: N

Lookup: Now consider CN(C)CCNC(=O)c1cccc2nc3ccc4cnn(C)c4c3nc12 and answer again.
Found: Y

Lookup: Now consider CN(C)CCNC(=O)c1cccc2nc3ccc4ncccc4c3nc12 and answer again.
Found: N

----------
Test system: NCI-H69
Assay: Inhibitory activity against drug resistant H69/LX4 line overexpressing P-glycoprotein
Format: functional, cell-based
Details: Homo sapiens, read-out: IC50
# maps each entry to its pIC50
# reply with the number alone; pIC50 is -log10 of concentration in mol/L

Test Smiles | Observed
CN(C)CCNC(=O)c1cccc2nc3ccc4[nH]ncc4c3nc12 | 8.35
CN(C)CCNC(=O)c1cccc2nc3ccc4cccnc4c3nc12 | 8.68

Lookup: Please give the measured pIC50 for this molecule: CN(C)CCNC(=O)c1cccc2nc3ccc4c(cnn4C)c3nc12
Found: 8.92

----------
Test: Inhibitory concentration to reduce cell number to 50% in a panel of cultured, wild type human Jurkat leukemia (JL C) cells.
Format: functional, cell-based
# if measured IC50 < 100 nM: Satisfied  # else: Not satisfied

Illustrative cases are given below, each with its answer.
Test Smiles | Label Class
COc1nccc2c1ccc1nc3cccc(C(=O)NCCN(C)C)c3nc12 | Satisfied
CN(C)CCNC(=O)c1cccc2nc3ccc4nccnc4c3nc12 | Not satisfied
CN(C)CCNC(=O)c1cccc2nc3ccc4cnn(C)c4c3nc12 | Satisfied

# ---- query compound ----
Lookup: Given CN(C)CCNC(=O)c1cccc2nc3ccc4ccncc4c3nc12 , is recorded IC50 strictly lower than 100 nM?
Found: Satisfied

----------
System: NCI-H69
Test: Inhibitory activity against drug resistant H69/LX4 line overexpressing P-glycoprotein
Format: functional, cell-based
Details: Homo sapiens, read-out: IC50
Quantity Name: pIC50
# reply with the number alone; pIC50 is -log10 of concentration in mol/L

Test Smiles | System Name | pIC50
CN(C)CCNC(=O)c1cccc2nc3ccc4ncccc4c3nc12 | NCI-H69 | 8.92
CN(C)CCNC(=O)c1cccc2nc3ccc4cnn(C)c4c3nc12 | NCI-H69 | 9.04
CN(C)CCNC(=O)c1cccc2nc3ccc4c(O)nccc4c3nc12 | NCI-H69 | 8.98
COc1nccc2c1ccc1nc3cccc(C(=O)N[C@H](C)CN(C)C)c3nc12 | NCI-H69 | 8.92
COc1cccc2c1ccc1nc3cccc(C(=O)N[C@H](C)CN(C)C)c3nc12 | NCI-H69 | 8.92

Lookup: Please give the measured pIC50 for this compound: CN(C)CCNC(=O)c1cccc2nc3ccc4[nH]cnc4c3nc12
Found: 8.28

Lookup: Now consider CN(C)CCNC(=O)c1cccc2nc3ccc4c[nH]nc4c3nc12 and answer again.
Found: 9.02

Lookup: Now consider CN(C)CCNC(=O)c1cccc2nc3ccc4ccncc4c3nc12 and answer again.
Found: 8.89

Lookup: Now consider CN(C)CCNC(=O)c1cccc2nc3ccc4c(ccn4C)c3nc12 and answer again.
Found: 8.77

Lookup: Now consider CN(C)CCNC(=O)c1cccc2nc3ccc4cnccc4c3nc12 and answer again.
Found: 9.19

----------
Assay: Inhibitory concentration to reduce cell number to 50% in a panel of cultured, wild type human Jurkat leukemia (JL C) cells.
Format: functional, cell-based
Quantity Name: IC50 (nM)
Give just the numeric value; nM need not be written.

Here are 3 compounds together with their reported answers.
Compound | Observed
CN(C)CCNC(=O)c1cccc2nc3ccc4c(cnn4C)c3nc12 | 98
CN(C)CCNC(=O)c1cccc2nc3ccc4ncccc4c3nc12 | 74
CN(C)CCNC(=O)c1cccc2nc3ccccc3nc12 | 2500

Lookup: Please give the measured IC50 for this compound: CN(C)CCNC(=O)c1cccc2nc3ccc4cnccc4c3nc12
Found: 28

Lookup: Now consider CN(C)CCNC(=O)c1cccc2nc3ccc4[nH]cnc4c3nc12 and answer again.
Found: 159

Lookup: Now consider CN(C)CCNC(=O)c1cccc2nc3ccc4c[nH]nc4c3nc12 and answer again.
Found: 194

Lookup: Now consider CN(C)CCNC(=O)c1cccc2nc3ccc4[nH]ncc4c3nc12 and answer again.
Found: 21

Lookup: Now consider COc1cccc2c1C(=O)c1c(O)c3c(c(O)c1C2=O)C[C@@](O)(C(=O)CO)C[C@@H]3O[C@H]1C[C@H](N)[C@H](O)[C@H](C)O1 [DOXORUBICIN] and answer again.
Found: 9.6

Lookup: Now consider CN(C)CCNC(=O)c1cccc2nc3ccc4cccnc4c3nc12 and answer again.
Found: 317

Lookup: Now consider CN(C)CCNC(=O)c1cccc2nc3ccc4ccccc4c3nc12 and answer again.
Found: 93

Source listed as ChEMBL document CHEMBL1135712.
